# MEASURED ON: specific ANP receptor sites on BASM or BAE cells (Bos taurus, UniProt P10730)
# Construct: specific receptor sites on BASM or BAE cells; endogenous in cells; host or cells: cultured BASM and BAE cells
# Sequence (P10730 42-537): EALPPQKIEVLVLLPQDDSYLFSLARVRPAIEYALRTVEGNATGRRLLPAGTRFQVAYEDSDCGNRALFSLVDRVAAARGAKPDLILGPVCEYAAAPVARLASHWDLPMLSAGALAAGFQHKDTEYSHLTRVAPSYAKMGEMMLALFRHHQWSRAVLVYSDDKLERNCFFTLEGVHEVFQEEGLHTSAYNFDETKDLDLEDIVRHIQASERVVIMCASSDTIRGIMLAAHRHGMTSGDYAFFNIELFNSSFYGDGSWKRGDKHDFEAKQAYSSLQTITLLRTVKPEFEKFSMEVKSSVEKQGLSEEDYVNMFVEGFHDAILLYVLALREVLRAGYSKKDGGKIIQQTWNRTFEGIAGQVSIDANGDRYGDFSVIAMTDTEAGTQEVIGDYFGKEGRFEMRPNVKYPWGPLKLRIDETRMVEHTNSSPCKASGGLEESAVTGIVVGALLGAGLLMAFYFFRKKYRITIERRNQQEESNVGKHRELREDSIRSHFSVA
# PROTOCOL DESCRIPTION: Competitive displacement receptor binding of (125I)-rANP(126-150) on cultured cells
# Parameters: species or system bovine
# PARTICULARS: concentration of unlabeled peptide displacing 50% of maximal binding of 0.5 nM (125I)-rANP(126-150); BASM or BAE cells
Where a SMILES comes first, the peptide text is derived from it. The star is where a group is joined. Phenylacetyl(4-Ph) = O=C(Cc1ccc(-c2ccccc2)cc1)*; Acetyl(2-naphthyl) = O=C(Cc1ccc2ccccc2c1)*; X7 = O=C(CN1CCC(C(=O)*)CC1)c1ccc2ccccc2c1
Recorded Ki(app) for the following molecules
METRIC: Ki(app) (nM)

INSERT INTO measurements (molecule, result_units, censoring_sign, observed_value) VALUES
  ('CC[C@H](C)[C@H](NC(=O)[C@H](CCCNC(=N)N)NC(=O)[C@H](CC(=O)O)NC(=O)[C@@H](NC(=O)[C@H](CCCNC(=N)N)NC(=O)C1CCN(CC(=O)c2ccc3ccccc3c2)CC1)[C@@H](C)CC)C(N)=O [AP574] (X7-RIDRI-NH2)', 'nM', '=', 26.5),
  ('CC[C@H](C)[C@H](NC(=O)[C@H](CCCNC(=N)N)NC(=O)[C@H](CC(=O)O)NC(=O)[C@@H](NC(=O)[C@H](CCCNC(=N)N)NC(=O)CNC(=O)CNC(=O)Cc1ccc(-c2ccccc2)cc1)[C@@H](C)CC)C(N)=O [AP317, (4-BPA)--G--G--R--I--D--R--I--NH2] ({Phenylacetyl(4-Ph)}-GGRIDRI-NH2)', 'nM', '=', 123.8),
  ('CC[C@H](C)[C@H](NC(=O)[C@H](CCCNC(=N)N)NC(=O)CNC(=O)CNC(=O)Cc1ccc2ccccc2c1)C(=O)N[C@@H](CC(=O)O)C(=O)N[C@@H](CCCNC(=N)N)C(=O)N1CCC[C@H]1C(N)=O [AP519, (2-NA)--G--G--R--I--D--R--P--NH2] ({Acetyl(2-naphthyl)}-GGRIDRP-NH2)', 'nM', '>', 400),
  ('CC[C@H](C)[C@H](NC(=O)[C@H](CCCNC(=N)N)NC(=O)[C@H](CC(=O)O)NC(=O)[C@@H](NC[C@H](CCCCN)NC(=O)Cc1ccc(NC(=O)Cc2ccc3ccccc3c2)cc1)[C@@H](C)CC)C(N)=O', 'nM', '=', 14.0);

====

# MEASURED ON: specific ANP receptor sites on BASM or BAE cells (Bos taurus)
# Construct: specific receptor sites on BASM or BAE cells; endogenous in cells; host or cells: cultured BASM and BAE cells
# Sequence (P10730 42-537): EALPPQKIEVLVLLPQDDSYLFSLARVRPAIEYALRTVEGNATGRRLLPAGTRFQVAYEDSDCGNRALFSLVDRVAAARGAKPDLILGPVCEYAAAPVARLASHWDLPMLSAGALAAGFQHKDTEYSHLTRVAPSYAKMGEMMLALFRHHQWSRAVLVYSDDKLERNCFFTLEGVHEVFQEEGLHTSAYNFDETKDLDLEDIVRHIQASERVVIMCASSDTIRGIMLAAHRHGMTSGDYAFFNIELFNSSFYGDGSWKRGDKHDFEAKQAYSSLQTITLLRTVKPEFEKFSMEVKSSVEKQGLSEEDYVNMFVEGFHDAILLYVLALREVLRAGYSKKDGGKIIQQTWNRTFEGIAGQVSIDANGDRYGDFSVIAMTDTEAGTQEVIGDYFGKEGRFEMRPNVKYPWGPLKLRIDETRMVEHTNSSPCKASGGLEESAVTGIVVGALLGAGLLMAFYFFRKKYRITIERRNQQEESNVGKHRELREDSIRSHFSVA
# PROTOCOL DESCRIPTION: Competitive displacement receptor binding of (125I)-rANP(126-150) on cultured cells
# Set-up: species or system bovine
# PARTICULARS: concentration of unlabeled peptide displacing 50% of maximal binding of 0.5 nM (125I)-rANP(126-150); BASM or BAE cells
*1 amine or outer side, *2 acyl side, *3 side chain or, on linkers, in order; H or OH if unused. Where a SMILES comes first, the peptide text is derived from it. [ ]: non-standard residue; d: D form. The star is where a group is joined. Acetyl(2-naphthyloxy) = O=C(COc1ccc2ccccc2c1)*; Acetyl(2-naphthyl) = O=C(Cc1ccc2ccccc2c1)*; X1 = O=C(Cc1ccc(N[*:1])cc1)[*:2]; Phg = N[C@H](C(=O)O)c1ccccc1; Aoc = NCCCCCCCC(=O)O; Inp = O=C(O)C1CCNCC1; Ahx = NCCCCCC(=O)O; X3 = CCC(C)CN*
In plain terms, low Ki(app), meaning strictly below 30 nM, gives Met, and everything else gives Not met.

INSERT INTO measurements (compound, class) VALUES
  ('CC[C@H](C)[C@H](NC(=O)[C@H](CCCNC(=N)N)NC(=O)CNC(=O)CNC(=O)Cc1ccc2ccccc2c1)C(=O)N[C@@H](CC(=O)O)C(=O)N[C@@H](CCCNC(=N)N)C(=O)N[C@H](C(N)=O)c1ccccc1 [AP595, (2-NA)--G--G-- R--I--D--R--Phg--NH2] ({Acetyl(2-naphthyl)}-GGRIDR[Phg]-NH2)', 'Not met'),
  ('CC[C@H](C)[C@H](NC(=O)[C@H](CCCNC(=N)N)NC(=O)[C@H](CC(=O)O)NC(=O)[C@@H](NC(=O)[C@H](CCCNC(=N)N)NC(=O)CCCCCCCNC(=O)COc1ccc2ccccc2c1)[C@@H](C)CC)C(N)=O [AP789] ({Acetyl(2-naphthyloxy)-Aoc}-RIDRI-NH2)', 'Not met'),
  ('CC[C@H](C)[C@H](NC(=O)[C@H](CCCCN)NC(=O)[C@H](CC(=O)O)NC(=O)[C@@H](NC(=O)[C@H](CCCNC(=N)N)NC(=O)Cc1ccc(NC(=O)Cc2ccc3ccccc3c2)cc1)[C@@H](C)CC)C(N)=O [AP799] ({Acetyl(2-naphthyl)}-[X1]RIDKI-NH2)', 'Met'),
  ('CC[C@H](C)[C@H](NC(=O)[C@H](CCCNC(=N)N)NC(=O)[C@H](CC(=O)O)NC(=O)[C@@H](NC(=O)[C@H](CCCNC(=N)N)NC(=O)Cc1ccc(NC(=O)COc2ccc3ccccc3c2)cc1)[C@@H](C)CC)C(N)=O [AP792] ({Acetyl(2-naphthyloxy)}-[X1]RIDRI-NH2)', 'Met'),
  ('CCC(C)CNC(=O)[C@H](CCCNC(=N)N)NC(=O)[C@H](CC(=O)O)NC(=O)[C@@H](NC(=O)[C@H](CCCNC(=N)N)NC(=O)C1CCN(C(=O)Cc2ccc3ccccc3c2)CC1)[C@@H](C)CC (stereo partly shown) [AP557] ({Acetyl(2-naphthyl)-Inp}-RIDR-X3)', 'Not met'),
  ('CC[C@H](C)[C@H](NC(=O)[C@H](CCCNC(=N)N)NC(=O)[C@H](CC(=O)O)NC(=O)[C@@H](NC(=O)[C@H](CCCNC(=N)N)NC(=O)CCCCCNC(=O)Cc1ccc2ccccc2c1)[C@@H](C)CC)C(N)=O [AP329, (2-NA)--NH(CH2)5 CO--R--I--D--R--I--NH2] ({Acetyl(2-naphthyl)-Ahx}-RIDRI-NH2)', 'Not met'),
  ('CC[C@H](C)CNC(=O)[C@H](CCCNC(=N)N)NC(=O)[C@H](CC(=O)O)NC(=O)[C@@H](NC[C@H](CCCCN)NC(=O)Cc1ccc(NC(=O)c2ccc3ccccc3c2)cc1)[C@@H](C)CC [AP814]', 'Not met');
